Target: T1, Anti-CD28 Fab (SEQ ID NOs: 696, 697)
T1 construct: In the phage ELISA the Fab was biotinylated and captured on neutravidin coated plates
T1 sequence (VH, as listed by the source, chain 1 of 2): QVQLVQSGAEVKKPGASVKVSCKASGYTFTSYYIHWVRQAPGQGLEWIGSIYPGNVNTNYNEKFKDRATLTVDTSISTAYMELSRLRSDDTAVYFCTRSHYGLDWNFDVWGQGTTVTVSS
T1 sequence (VL, as listed by the source, chain 2 of 2): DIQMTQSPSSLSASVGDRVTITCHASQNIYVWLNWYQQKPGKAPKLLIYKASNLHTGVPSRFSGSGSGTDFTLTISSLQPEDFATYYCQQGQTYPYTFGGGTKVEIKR
Assay: phage binding ELISA; biotinylated anti-CD28 Fab on neutravidin plate, bound phage detected with anti-M13-HRP;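 also: clonal phage tested as crude supernatants, given a short incubation in the Fab-captured wells before bound phage were read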
Some binders, each annotated with its measured Anti-CD28 Fab signal (phage binding ELISA).
measurement name: Anti-CD28 Fab signal (phage binding ELISA)

| binder | experimental result |
| --- | --- |
| LCKPGVPNSWPTCL (Tested as clonal phage supernatant; not shown: fused to the pIII filament of the bacteriophage) [Phage-1431 (peptide-92 library clone, SEQ ID NO: 1727)] | 1.95 |
| TCSAGATWPWPICL (Tested as clonal phage supernatant; not shown: fused to the pIII filament of the bacteriophage) [Phage-1444 (peptide-92 library clone, SEQ ID NO: 1740)] | 1.89 |
| TCRAGATYNWPFCL (Tested as clonal phage supernatant; not shown: fused to the pIII filament of the bacteriophage) [Phage-1443 (peptide-92 library clone, SEQ ID NO: 1739)] | 1.9 |
| PCAAGAMWPWPVCL (Tested as clonal phage supernatant; not shown: fused to the pIII filament of the bacteriophage) [Phage-1433 (peptide-92 library clone, SEQ ID NO: 1729)] | 1.95 |
| LCNAGAMYKWPTCL (Tested as clonal phage supernatant; not shown: fused to the pIII filament of the bacteriophage) [Phage-1434 (peptide-92 library clone, SEQ ID NO: 1730)] | 1.94 |
| TCSAGAGYPWPLCY (Tested as clonal phage supernatant; not shown: fused to the pIII filament of the bacteriophage) [Phage-1438 (peptide-92 library clone, SEQ ID NO: 1734)] | 1.92 |
